# tgt: aldosterone receptor (Rattus norvegicus)
# Construct: centrifuged at 105,000 g for 30 minutes, and then a supernatant was collected as a renal soluble fraction
# Sequence (P22199 whole entry): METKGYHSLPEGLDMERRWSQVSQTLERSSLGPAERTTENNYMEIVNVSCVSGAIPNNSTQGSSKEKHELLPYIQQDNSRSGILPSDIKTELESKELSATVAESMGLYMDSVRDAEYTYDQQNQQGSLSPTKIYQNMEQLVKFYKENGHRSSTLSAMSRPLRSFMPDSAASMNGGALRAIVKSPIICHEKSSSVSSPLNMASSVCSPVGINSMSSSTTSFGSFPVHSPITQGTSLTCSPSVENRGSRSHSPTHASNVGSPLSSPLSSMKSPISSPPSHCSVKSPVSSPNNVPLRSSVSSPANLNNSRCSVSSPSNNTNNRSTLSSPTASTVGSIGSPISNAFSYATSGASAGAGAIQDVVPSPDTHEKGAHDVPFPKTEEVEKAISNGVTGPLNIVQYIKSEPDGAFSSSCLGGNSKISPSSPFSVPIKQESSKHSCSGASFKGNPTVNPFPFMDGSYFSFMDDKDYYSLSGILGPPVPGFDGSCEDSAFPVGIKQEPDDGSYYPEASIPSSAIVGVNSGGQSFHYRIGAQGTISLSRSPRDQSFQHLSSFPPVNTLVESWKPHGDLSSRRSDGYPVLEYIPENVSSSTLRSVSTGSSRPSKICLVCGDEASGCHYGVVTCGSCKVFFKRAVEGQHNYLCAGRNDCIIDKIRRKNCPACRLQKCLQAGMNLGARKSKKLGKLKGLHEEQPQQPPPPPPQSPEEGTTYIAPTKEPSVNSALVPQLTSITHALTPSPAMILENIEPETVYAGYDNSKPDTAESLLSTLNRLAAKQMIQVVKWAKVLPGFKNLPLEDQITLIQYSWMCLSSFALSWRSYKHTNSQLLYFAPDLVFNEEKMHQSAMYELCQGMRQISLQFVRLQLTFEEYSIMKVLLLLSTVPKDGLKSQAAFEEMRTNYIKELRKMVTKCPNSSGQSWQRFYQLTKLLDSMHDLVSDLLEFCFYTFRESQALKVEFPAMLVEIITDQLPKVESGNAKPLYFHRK
# test_method_notes: Binding inhibition test for aldosterone receptor ([3H]aldosterone, rat renal soluble fraction)
# condition_summary: [3H]aldosterone 2 nM, rat renal soluble fraction, in the presence of 2 μM RU-486, 4° C. about 18 hours; read-out: MR IC50
Each entry below carries its recorded IC50.
experimental_endpoint: IC50

{"input_smiles": "COc1cc(NC(=O)c2ccc(-c3ccc(F)cc3C(F)(F)F)c(CNCC(F)F)c2)ccc1S(N)(=O)=O", "experimental_endpoint": "IC50", "assay_result": "< 10 µM"}
{"input_smiles": "COc1cc(NC(=O)c2ccc(-c3ccc(C(F)(F)F)cc3Cl)c(CNCC(F)F)c2)ccc1S(N)(=O)=O", "experimental_endpoint": "IC50", "assay_result": "< 10 µM"}
{"input_smiles": "CCCOc1ncccc1-c1ccc(C(=O)Nc2ccc(S(N)(=O)=O)c(OC)c2)cc1CNCC(F)F", "experimental_endpoint": "IC50", "assay_result": "< 10 µM"}

Origin of the recorded values: patent US20130116227A1
